# Tested on: KLEBSIELLA PNEUMONIAE ATCC 8045
# Assay summary: In vitro antibacterial activity, MIC, BHI agar dilution
# Assay type: cell-based
# Measurement setup: K. pneumoniae ATCC 8045, unit assumed
Observation type: MIC (µg/mL)
Your answer is read as µg/mL, so omit the unit and give the number.

Field: example entries. Status: answers known.
Return the recorded MIC value; entry: CC[C@H]1OC(=O)[C@H](C)[C@@H](O[C@H]2C[C@@](C)(OC)[C@@H](O)[C@H](C)O2)[C@H](C)[C@@H](O[C@@H]2O[C@H](C)C[C@H](N(C)C)[C@H]2O)[C@](C)(O)C[C@@H](C)C(=O)[C@H](C)[C@@H](O)[C@]1(C)O [Ery A, Erythromycin A, reference compound]
100

Return the recorded MIC value; entry: CC[C@H]1OC(=O)[C@H](C)C(=O)[C@H](C)[C@@H](O[C@@H]2O[C@H](C)C[C@H](N(C)C)[C@H]2O)[C@](C)(OC)C[C@@H](C)C2=NCC(COC(=O)c3ccc(Cl)cc3)N3C(=O)O[C@@]1(C)[C@H]3[C@H]2C (stereo partly drawn)
100

Return the recorded MIC value; entry: CC[C@H]1OC(=O)[C@H](C)C(=O)[C@H](C)[C@@H](O[C@@H]2O[C@H](C)C[C@H](N(C)C)[C@H]2O)[C@](C)(OC)C[C@@H](C)C2=NC3CNCC3N3C(=O)O[C@@]1(C)[C@H]3[C@H]2C (stereo partly drawn)
25

***
Return the recorded MIC value; entry: CCC1OC(=O)C(C)C(=O)C(C)C(OC2OC(C)CC(N(C)C)C2O)C(C)(OC)CC(C)C2=NC(CN)CN3C(=O)OC1(C)C3C2C (stereo not drawn)
12.5

Where these numbers come from: patent US6274715A
